- Assay Info: Pharmacokinetics in Beagle dogs
- Format: in vivo
- Condition Notes: male, Beagle, dog, plasma, oral, 2 mg/kg, 2 mg/kg (in free form), crystalline form
Assay Readout: AUC(0-t) (ng·h/mL)
Give bare numbers, in ng·h/mL.

Exam item: If you can, please state the reported AUC(0-t) value of `CS(=O)(=O)c1ccc2c(c1)CN([C@H]1CO[C@H](c3cc(F)ccc3F)[C@@H](N)C1)C2` .
Marked response: 19500

###

- Assay Info: Pharmacokinetics in Beagle dogs
- Type: in vivo
- Condition Notes: male, Beagle, dog, plasma, oral, 2 mg/kg, 2 mg/kg (in free form), crystalline form
Assay Readout: AUC(0-inf) (ng·h/mL)
One number for each entry, in ng·h/mL.

Exam item: If you can, please state the reported AUC(0-inf) value of `CS(=O)(=O)c1ccc2c(c1)CN([C@H]1CO[C@H](c3cc(F)ccc3F)[C@@H](N)C1)C2` .
Marked response: 20300

###

- Assay Info: Pharmacokinetics in Beagle dogs
- Format: in vivo
- Condition Notes: male, Beagle, dog, plasma, po, 2 mg/kg, 2 mg/kg (in free form), crystalline form, read-out: MRT(0−t)
Assay Readout: MRT last (h)
Numbers only, in h.

Exam item: If you can, please state the reported MRT last value of `CS(=O)(=O)c1ccc2c(c1)CN([C@H]1CO[C@H](c3cc(F)ccc3F)[C@@H](N)C1)C2` .
Marked response: 20.6

###

- Assay Info: Pharmacokinetics in Beagle dogs
- Format: in vivo
- Condition Notes: male, Beagle, dog, plasma, oral, 2 mg/kg, 2 mg/kg (in free form), crystalline form, read-out: MRT(0−t)
Assay Readout: MRT last (h)
Answers are plain numbers, in h.

Exam item: If you can, please state the reported MRT last value of `CS(=O)(=O)c1ccc2c(c1)CN([C@H]1CO[C@H](c3cc(F)ccc3F)[C@@H](N)C1)C2` .
Marked response: 20.3

###

- Assay Info: Pharmacokinetics in Beagle dogs
- Format: in vivo
- Condition Notes: male, Beagle, dog, plasma, oral, 2 mg/kg, 2 mg/kg (in free form), crystalline form, read-out: Tmax
Assay Readout: Tmax (min)
Give bare numbers, in min.

Exam item: If you can, please state the reported Tmax value of `CS(=O)(=O)c1ccc2c(c1)CN([C@H]1CO[C@H](c3cc(F)ccc3F)[C@@H](N)C1)C2` .
Marked response: 45

###

- Assay Info: Pharmacokinetics in Beagle dogs
- Format: in vivo
- Condition Notes: male, Beagle, dog, plasma, oral, 2 mg/kg, 2 mg/kg (in free form), crystalline form, read-out: Cmax
Assay Readout: Cmax (ng/mL)
Numbers only, in ng/mL.

Exam item: If you can, please state the reported Cmax value of `CS(=O)(=O)c1ccc2c(c1)CN([C@H]1CO[C@H](c3cc(F)ccc3F)[C@@H](N)C1)C2` .
Marked response: 1220

###

- Assay Info: Pharmacokinetics in Beagle dogs
- Assay type: in vivo
- Condition Notes: male, Beagle, dog, plasma, oral, 2 mg/kg, 2 mg/kg (in free form), relative to the compound represented by Formula I, read-out: Relative F %
Assay Readout: bioavailability (%)
Answers are plain numbers, in %.

Exam item: If you can, please state the reported bioavailability value of `CS(=O)(=O)c1ccc2c(c1)CN([C@H]1CO[C@H](c3cc(F)ccc3F)[C@@H](N)C1)C2` .
Marked response: 152

###

- Assay Info: Pharmacokinetics in Beagle dogs
- Format: in vivo
- Condition Notes: male, Beagle, dog, plasma, po, 2 mg/kg, 2 mg/kg (in free form), crystalline form
Assay Readout: half-life
# answer = value followed by unit

Exam item: If you can, please state the reported half-life value of CS(=O)(=O)c1ccc2c(c1)CN([C@H]1CO[C@H](c3cc(F)ccc3F)[C@@H](N)C1)C2 [The compound represented by Formula I] .
Marked response: 16.4 h

###

- Assay Info: Pharmacokinetics in Beagle dogs
- Assay type: in vivo
- Condition Notes: male, Beagle, dog, plasma, po, 2 mg/kg, 2 mg/kg (in free form), crystalline form, read-out: Tmax
Assay Readout: Tmax (h)
Answers are plain numbers, in h.

Exam item: If you can, please state the reported Tmax value of CS(=O)(=O)c1ccc2c(c1)CN([C@H]1CO[C@H](c3cc(F)ccc3F)[C@@H](N)C1)C2 [The compound represented by Formula I] .
Marked response: 6

###

- Assay Info: Pharmacokinetics in Beagle dogs
- Format: in vivo
- Condition Notes: male, Beagle, dog, plasma, po, 2 mg/kg, 2 mg/kg (in free form), relative to the compound represented by Formula I, read-out: Relative F %
Assay Readout: bioavailability (%)
Numbers only, in %.

Exam item: If you can, please state the reported bioavailability value of `CS(=O)(=O)c1ccc2c(c1)CN([C@H]1CO[C@H](c3cc(F)ccc3F)[C@@H](N)C1)C2` .
Marked response: 100

###

- Assay Info: Pharmacokinetics in Beagle dogs
- Type: in vivo
- Condition Notes: male, Beagle, dog, plasma, oral, 2 mg/kg, 2 mg/kg (in free form), crystalline form
- Method: Male Beagle dogs were fasted for about 12 h prior to administration and had free access to water. The dogs were also fasted for 4 hours after administration. […] 300 μL of a solution of an internal standard substance in methanol was added to 50 μL of the plasma sample to be tested and a standard curve sample, respectively. […] Then 80 μL of supernatant was taken, and 5 μL of the supernatant was pipetted for LC/MS/MS determination, and the chromatogram was recorded.
Assay Readout: half-life (h)
Answers are plain numbers, in h.

Exam item: If you can, please state the reported half-life value of `CS(=O)(=O)c1ccc2c(c1)CN([C@H]1CO[C@H](c3cc(F)ccc3F)[C@@H](N)C1)C2` .
Marked response: 16.6

Data credit: patent US10822319B2
